- Experiment Description: self-splicing fitness, log relative to wild type (ln ratio); higher = more splicing; Tetrahymena group I intron in knt gene, E. coli kanamycin selection, DiMSum; sequences stand for … in CUCUCU…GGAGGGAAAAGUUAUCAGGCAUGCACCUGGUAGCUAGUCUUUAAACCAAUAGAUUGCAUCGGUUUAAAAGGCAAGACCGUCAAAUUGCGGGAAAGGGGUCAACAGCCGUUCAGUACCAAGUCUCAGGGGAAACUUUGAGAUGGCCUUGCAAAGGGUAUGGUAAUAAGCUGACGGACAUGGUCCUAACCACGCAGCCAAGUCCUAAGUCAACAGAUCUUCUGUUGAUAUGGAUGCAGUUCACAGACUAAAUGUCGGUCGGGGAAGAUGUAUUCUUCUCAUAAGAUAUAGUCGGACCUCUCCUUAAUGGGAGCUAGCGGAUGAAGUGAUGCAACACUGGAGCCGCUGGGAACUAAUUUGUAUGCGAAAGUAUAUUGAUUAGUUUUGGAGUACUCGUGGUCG;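 note: selection with 25 µg/mL kanamycin versus none on LB agar overnight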
- Details: 30 °C
Short version: self-splicing fitness (ln) at least -2 is 1 (yes), less is 0 (no).

Check this sequence for self-splicing fitness (ln) at or above -2: AGAUAGCAAUAUUACGAUUA
1 (yes)

Reported self-splicing fitness (ln) at or above -2? AUUGAGCAAUAUUACGUAAC
1 (yes)

API: above_or_equal(metric=self-splicing fitness (ln), cutoff=-2) for item GCCUAGCAAUAUUACGAUGC
1 (yes)

Exam item: decide whether the reported self-splicing fitness (ln) for UGAUAGCAAUAUUACGAAAA is at least -2.
1 (yes)

hey, is self-splicing fitness (ln) for this one >= -2? UACUAGCAAUAUUACGGGUU
0 (no)

Has UUCGAGCAAUAUUACGCUGC a recorded self-splicing fitness (ln) greater than or equal to -2?
0 (no)

Decide: self-splicing fitness (ln) of GUCGAGCAAUAUUACGUUCA >= -2?
1 (yes)

Is the recorded value of self-splicing fitness (ln) equal to or greater than -2 for this sequence? UUACAGCAAUAUUACGGGAA
1 (yes)

# bool: self-splicing fitness (ln) of GCUUAGCAAUAUUACGUGAG >= -2
1 (yes)

Entry UACAAGCAAUAUUACGCCCA : is its self-splicing fitness (ln) no less than -2?
1 (yes)

---

- Experiment Description: self-splicing fitness, log relative to wild type (ln ratio); higher = more splicing; Tetrahymena group I intron in knt gene, E. coli kanamycin selection, DiMSum; sequences stand for … in CUCUCU…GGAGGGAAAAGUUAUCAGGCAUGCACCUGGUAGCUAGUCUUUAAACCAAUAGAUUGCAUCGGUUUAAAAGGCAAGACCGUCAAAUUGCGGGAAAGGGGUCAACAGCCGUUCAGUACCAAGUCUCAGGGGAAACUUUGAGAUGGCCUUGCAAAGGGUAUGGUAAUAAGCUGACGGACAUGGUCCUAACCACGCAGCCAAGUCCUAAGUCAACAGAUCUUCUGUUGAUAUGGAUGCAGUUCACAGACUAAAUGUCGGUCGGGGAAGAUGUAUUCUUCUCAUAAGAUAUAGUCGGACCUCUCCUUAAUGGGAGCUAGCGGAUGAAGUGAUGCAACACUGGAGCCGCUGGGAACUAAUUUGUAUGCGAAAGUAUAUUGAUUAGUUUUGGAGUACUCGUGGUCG
- Details: 30 °C
Measure: self-splicing fitness (ln)
Answer field: number only, no words.

Specify measured self-splicing fitness (ln) for UCCCAGCAAUAUUACGUUAA .
-1.89

Determine its reported self-splicing fitness (ln): UAUCAGCAAUAUUACGGGAG
-1.83

Give me measured self-splicing fitness (ln), please, for this sequence: UGGCAGCAAUAUUACGUUUA
-0.478

Write down self-splicing fitness (ln) measured for item AUACAGCAAUAUUACGAUCA
-0.716

Hello, please tell me recorded self-splicing fitness (ln) for this one: AAACAGCAAUAUUACGCGAC
-2.77

Supply self-splicing fitness (ln) value. Item: AAGCAGCAAUAUUACGAGCU
-1.2

Entry GCACAGCAAUAUUACGGCGC needs its self-splicing fitness (ln) filled in; supply it.
-1.54

Please give the documented self-splicing fitness (ln) of GUUCAGCAAUAUUACGAGUC
-1.32

Check the records and state self-splicing fitness (ln) for UGCGAGCAAUAUUACGGCUA
0.388

Please report self-splicing fitness (ln) for the following sequence: GUCGAGCAAUAUUACGGGUA
-2.65

Annotate the sequence GCCGAGCAAUAUUACGAUGC with its measured self-splicing fitness (ln).
-0.994

Give self-splicing fitness (ln) for CUCCAGCAAUAUUACGACAU
-4.01

State its self-splicing fitness (ln): AACAAGCAAUAUUACGAAAA
-1.7

Identify self-splicing fitness (ln) associated with the sequence CACGAGCAAUAUUACGAUUC
-3.44

Specify self-splicing fitness (ln) for AAGUAGCAAUAUUACGCGAU and stop.
-3.2

Give the reported self-splicing fitness (ln) for this sequence. UCCGAGCAAUAUUACGGUUU
-3.42

Identify self-splicing fitness (ln) associated with the sequence GGUGAGCAAUAUUACGGCUA
-0.0423

Give the reported value of self-splicing fitness (ln) for this record: UCUGAGCAAUAUUACGGAAG
-4.27

Assign self-splicing fitness (ln) to the following record: GCUUAGCAAUAUUACGGCGU
-0.354

Supply reported self-splicing fitness (ln) belonging to this sequence: UGCUAGCAAUAUUACGGGCA
-3.8

Identify the reported self-splicing fitness (ln) for the following entry. GGCGAGCAAUAUUACGGUCG
-1.13

Return value of self-splicing fitness (ln) for input CCGGAGCAAUAUUACGACUA , no commentary.
-2.18

State its self-splicing fitness (ln): GAAAAGCAAUAUUACGGAAU
-2.81

Give a short answer stating reported self-splicing fitness (ln) for AUAUAGCAAUAUUACGUUUU .
-2.98

Write down self-splicing fitness (ln) measured for item GCCGAGCAAUAUUACGGUUA
-0.775

Supply self-splicing fitness (ln) value. Item: GUGGAGCAAUAUUACGCAGU
-2.88

Provide only the value of recorded self-splicing fitness (ln) for CCAAAGCAAUAUUACGCUAA
-2.86

Identify measured self-splicing fitness (ln) associated with AUUAAGCAAUAUUACGAAUG
-2.82

Give the reported value of self-splicing fitness (ln) for this record: CCAAAGCAAUAUUACGUUAA
-3.93

Give reported self-splicing fitness (ln) value for CGUAAGCAAUAUUACGCGUG
-1.79

// Input: CUGGAGCAAUAUUACGUAAC . Output its self-splicing fitness (ln) only.
-3.25

Provide measured self-splicing fitness (ln) value, entry: AACGAGCAAUAUUACGUCGG
-3.25

Please give the documented self-splicing fitness (ln) of CGCUAGCAAUAUUACGGCAC
-1.9

Specify reported self-splicing fitness (ln) for the sequence shown: GGAUAGCAAUAUUACGUGUG
-1.91

Check the records and state self-splicing fitness (ln) for AUCAAGCAAUAUUACGGCGA
-0.555

Look up self-splicing fitness (ln) of UGUAAGCAAUAUUACGUCGU and report it.
-3.66

Recall and state the measured self-splicing fitness (ln) for UCGCAGCAAUAUUACGGCCG .
-0.546

Provide only the value of recorded self-splicing fitness (ln) for UGACAGCAAUAUUACGUCUG
-0.69

Look up and report measured self-splicing fitness (ln) for this entry: UCUAAGCAAUAUUACGUGCU
-4.04

Quote self-splicing fitness (ln) reported for UUGCAGCAAUAUUACGCUGC please.
-3.93

Fill in reported self-splicing fitness (ln) for this entry: CACCAGCAAUAUUACGAGAU
-3.87

Please list self-splicing fitness (ln) recorded for the sequence ACGCAGCAAUAUUACGGUUG
-3.89

Using the record for UGGAAGCAAUAUUACGAUCU , state its measured self-splicing fitness (ln).
-0.0165

Supply reported self-splicing fitness (ln) belonging to this sequence: CUCCAGCAAUAUUACGCCUU
-2.33
